Conditions: in acetonitrile, 308.15 K
readout-label: solubility (mole fraction)
Please give the numeric answer without any surrounding text.

Could you please provide reported solubility (mole fraction) for O=P(O)(O)c1ccccc1 ? Thanks! 0.0275

* * *

Conditions: in acetone, 298.15 K
readout-label: solubility (mole fraction)
Please give the numeric answer without any surrounding text.

Could you please provide reported solubility (mole fraction) for O=P(O)(O)c1ccccc1 ? Thanks! 0.174

* * *

Details: in ethyl acetate, 308.15 K
readout-label: solubility (mole fraction)

Could you please provide reported solubility (mole fraction) for O=P(O)(O)c1ccccc1 ? Thanks! 0.0106

* * *

Details: in acetonitrile, 313.15 K
readout-label: solubility (mole fraction)
Please give the numeric answer without any surrounding text.

Could you please provide reported solubility (mole fraction) for O=P(O)(O)c1ccccc1 ? Thanks! 0.0317

Data provenance: BigSolDB 2.1
